# system.name: T1, ADF peptide complexed with HLA-A*02:01 on T2 cells (human)
# T1 construct: whole, on cells
# assay: flow cytometry, peptide-loaded T2 cells;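 note: binding of single-chain Fv antibody constructs, raised in XenoMouse, to peptide-pulsed T2 cells measured by flow cytometry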
value.kind: Signal/background

Check out these entries, answers already filled in.
Query :: Provide measured Signal/background value, entry: 18182-G6 (scFv, scFv in bacterial lysate, detected with anti-Flag M2) scFv: EVQLLESGGGLVQPGGSLRLSCAASGFTFSSYAMSWVRQAPGKGLEWVSAISGSGGGTYYADSVKGRFTISRDNSKNTLYLQMNSLRAEDTAAYYCVTGKGVHLGFDYWGQGTLVTVSSGGGGSGGGGSGGGGSELVLTQPPSVSVAPGQTARITCGGNNIGSKSVHWHQQKPGQSPVLVIYDDNDRPSGIPERFSGFNSGNTATLTISRVEAGDEADYYCQVWDSSSDHVVFGGGTKLTVL
Result :: 1

Query :: Provide measured Signal/background value, entry: 18182-A4 (scFv, scFv in bacterial lysate, detected with anti-Flag M2) scFv: EVQLLESGGGVVQPGRSLRLSCAASGFTFSSYAMTWVRQAPGQGLEWVSSISGSGGGTYYAASVKGRFTISRDNSKNTLYLQMNSLRAEDTAVYYCATGKGVHLGFDYWGQGTLVTVSSGGGGSGGGGSGGGGSELVLTQPPSVSVAPGQTARITCGGNNIGSKSVHWYQQKPGQAPVLVVYDDNDRPSGIPERFSGSNFGNTATLIISRVAAGDEADYYCQVWDSSSDHVVFGGGTKLTVL
Result :: 1.1

Query :: Provide measured Signal/background value, entry: 18181-A6 (scFv, scFv in bacterial lysate, detected with anti-Flag M2) scFv: EVQLLESGGGLVQPGGSLRLSCAASGFTFSNAWMSWVRQAPGKGLEWVGRIKGNTYGGTTDYAAPVKGRFTISRDDSKNTLYLQMNSLKTEDTAVYYCTTPSYSGSYYNYFSVMDVWGQGTTVTVSSGGGGSGGGGSGGGGSELVMTQSPSSLSASVGDRVTITCRASQSISSYLNWYQQKPGRAPKLLIFAASSLQGGVPSRFSGSGSGTDFTLTISSLQPEDFATYYCQQTYSMPFTFGPGTKLEIK
Result :: 1

Query :: Provide measured Signal/background value, entry: 18182-G2 (scFv, scFv in bacterial lysate, detected with anti-Flag M2) scFv: EVQLLESGGGLVQPGGSLRLSCAASGFTFSSHAMSWVRQAPGKGLEWVSAISGSGGGTYNADSVKGRFTISRDNSKNTLYLQMNSLRAEDTAAYYCVTGKGVHLGFDYWGQGTLVTVSSGGGGSGGGGSGGGGSELVLTQPPSVSVAPGQTARITCGGNNIGSKSVHWYQQKPGQAPVMVVYDDNDRPSGIPERFSGSNSGNTATLTISRVEAGDEADYYCQVWDSSSDHVIFGGGTKLTVL
Result :: 1

Further cases:
Query :: Provide measured Signal/background value, entry: 18182-H12 (scFv, scFv in bacterial lysate, detected with anti-Flag M2) scFv: EVQLLESGGGLVQPGGSLRLSCAASGFTFSSYAMSWVRQAPGKGLEWVSTISGSGGGTYYADSVKGRFTISRDNSKNTLYLQMNSLRAEDTAVYYCATGKGVHLGFDYWGQGTLVTVSSGGGGSGGGGSGGGGSELMLTQPHSVSVAPGQTARITCGGNNIGSKSVHWYQQKPGQAPVLVVYDDNDRPSGIPERFSGSNFGNTATLIISRVEAGDEADYYCQVWDSSSDHVVFGGGTKLTVL
Result :: 1
